- ASSAYED TARGET: T1, Source 1 VEGF-D, mature dimeric recombinant human VEGF-D (CSIRO) (human, UniProt O43915 89-205)
- T1 construct: Whole entry named; also called Source 1 VEGF-D dimer; VEGF-D dimer
- T1 sequence: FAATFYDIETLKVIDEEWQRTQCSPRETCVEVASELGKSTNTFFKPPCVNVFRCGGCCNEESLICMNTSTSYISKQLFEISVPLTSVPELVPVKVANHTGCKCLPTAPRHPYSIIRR
- ASSAY METHOD TEXT: SPR Protocol A: IgG captured by anti-human Fc, VEGF-D dimer as analyte

BINDER	UOM	Kd
humanized IgG antibody derived from clone HH41 (antibody, V domains shown, IgG; also called HH41#1; HH41#2) VH: QVQLVQSGAEVKQPGASVKVSCKASGYTFTGYNMYWVRQAPGQGLEWMGYIDPYNGDTTYNQKFKGRVTMTTDTSTSTAYMKLRSLRSDDTAVYYCARTSYYGGMDYWGRGTLVTVAS VL: DIVMTQTPLSSPVTLGQPASISCRSSQSLVHGNGNTYLHWLQQRPGQPPRLLIYKVSNRFSGVPDRFSGSGAGTDFTLKISRVEAEDVGVYYCSQSTHVPRTFGQGTKLEIKR	nM	0.364

The reported numbers originate from patent US20120093811A1.
